Measured ΔΔG (to previous) of individual entries
measured_on: 14-3-3γ (Homo sapiens, UniProt P61981)
Construct: made in house; host or cells: E. coli NiCo21 (DE3)
Sequence (P61981 whole entry): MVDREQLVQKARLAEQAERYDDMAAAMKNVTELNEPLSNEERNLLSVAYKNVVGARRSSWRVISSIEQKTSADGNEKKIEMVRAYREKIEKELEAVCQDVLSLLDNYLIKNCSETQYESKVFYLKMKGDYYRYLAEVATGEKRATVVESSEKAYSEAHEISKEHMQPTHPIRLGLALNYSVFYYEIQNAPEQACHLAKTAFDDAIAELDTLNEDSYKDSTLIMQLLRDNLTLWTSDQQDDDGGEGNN
procedure_text: Fluorescence anisotropy (FA) binary binding study: 14-3-3 titrated to fluorescein-labelled peptide
measurement_parameters: Table S2; ΔG minus ΔG of previous peptide, FA; replicate 2
Where a SMILES comes first, the peptide text is derived from it. [ ]: non-standard residue; d: D form. The star is where a group is joined. ξ: configuration not given here. FITC = O=C1OC2(c3ccc(O)cc3Oc3cc(O)ccc32)c2ccc(NC(=S)*)cc21; Phe(4-NO2) = N[C@@H](Cc1ccc([N+](=O)[O-])cc1)C(=O)O; ξAla(4-thiazolyl) = NC(Cc1cscn1)C(=O)O; pS = N[C@@H](COP(=O)(O)O)C(=O)O; β3hS = N[C@@H](CO)CC(=O)O; Nva = CCC[C@H](N)C(=O)O; βAla = NCCC(=O)O

Observe how each entry below is paired with its result.
{"compound": "CCC[C@H](N)C(=O)N[C@@H](Cc1ccc([N+](=O)[O-])cc1)C(=O)NC(Cc1cscn1)C(=O)N[C@@H](COP(=O)(O)O)C(=O)N[C@@H](Cc1ccc([N+](=O)[O-])cc1)C(=O)N[C@@H](CO)CC(=O)NCCC(=O)N[C@@H](Cc1ccc([N+](=O)[O-])cc1)C(=O)N[C@@H](CCCCN)C(=O)N[C@@H](C)C(=O)N[C@@H](CCCCNC(=S)Nc1ccc2c(c1)C(=O)OC21c2ccc(O)cc2Oc2cc(O)ccc21)C(N)=O (stereo partly drawn) [2a] (H-[Nva][Phe(4-NO2)][ξAla(4-thiazolyl)][pS][Phe(4-NO2)][β3hS][βAla][Phe(4-NO2)]KAK(FITC)-NH2)", "quantity_name": "ΔΔG (to previous)", "measurement": "0,56 kcal/mol"}
{"compound": "C[C@H](NC(=O)[C@H](CCCCN)NC(=O)[C@H](Cc1ccc([N+](=O)[O-])cc1)NC(=O)CCNC(=O)C[C@H](CO)NC(=O)[C@H](Cc1ccc([N+](=O)[O-])cc1)NC(=O)[C@H](COP(=O)(O)O)NC(=O)C(N)Cc1cscn1)C(=O)N[C@@H](CCCCNC(=S)Nc1ccc2c(c1)C(=O)OC21c2ccc(O)cc2Oc2cc(O)ccc21)C(N)=O (stereo partly drawn) [2c] (H-[ξAla(4-thiazolyl)][pS][Phe(4-NO2)][β3hS][βAla][Phe(4-NO2)]KAK(FITC)-NH2)", "quantity_name": "ΔΔG (to previous)", "measurement": "-0,38 kcal/mol"}
{"compound": "C[C@H](NC(=O)[C@H](CCCCN)NC(=O)[C@H](Cc1ccc([N+](=O)[O-])cc1)NC(=O)CCNC(=O)C[C@H](CO)NC(=O)[C@H](Cc1ccc([N+](=O)[O-])cc1)NC(=O)[C@@H](N)COP(=O)(O)O)C(=O)N[C@@H](CCCCNC(=S)Nc1ccc2c(c1)C(=O)OC21c2ccc(O)cc2Oc2cc(O)ccc21)C(N)=O [2d] (H-[pS][Phe(4-NO2)][β3hS][βAla][Phe(4-NO2)]KAK(FITC)-NH2)", "quantity_name": "ΔΔG (to previous)", "measurement": "2,26 kcal/mol"}

Now look at this entry.
Recall and state the measured ΔΔG (to previous) for C[C@H](NC(=O)[C@H](CCCCN)NC(=O)[C@H](Cc1ccc([N+](=O)[O-])cc1)NC(=O)CCNC(=O)C[C@H](CO)NC(=O)[C@H](Cc1ccc([N+](=O)[O-])cc1)NC(=O)[C@H](COP(=O)(O)O)NC(=O)C(Cc1cscn1)NC(=O)[C@@H](N)Cc1ccc([N+](=O)[O-])cc1)C(=O)N[C@@H](CCCCNC(=S)Nc1ccc2c(c1)C(=O)OC21c2ccc(O)cc2Oc2cc(O)ccc21)C(N)=O (stereo partly drawn) [2b] (H-[Phe(4-NO2)][ξAla(4-thiazolyl)][pS][Phe(4-NO2)][β3hS][βAla][Phe(4-NO2)]KAK(FITC)-NH2) .
0,50 kcal/mol
